Tested on: HCMV
Test: HCMV plaque (focus) reduction assay in HFF cells
Type: cell-based
Settings: Human betaherpesvirus 5, HFF, read-out: 50% Inhibitory Concentration IC50, Antiviral Activity, HCMV (plaque assay in HFF cells)
test-readout: pIC50
The scale used: pIC50 is minus the common logarithm of the concentration in molar units.

Fill in pIC50 for record OC[C@@H]1C=C[C@H](c2c(Cl)nc3cc(Cl)c(Cl)cn23)O1 [Compound 76]
4.49

----------
Assay: in vitro
Type: cell-based, human
Conditions: human, hff cells
Items are presented alongside their recorded CC50.

Recorded results for 3 molecules are shown here.
>>> df
                                   molecule  test_readout  reported
0  O[C@H]1[C@@H](O)CO[C@H]1c1c(Cl)nc2cc(Cl)c(Cl)cn12          CC50  > 100 µM
1  OC[C@H]1O[C@@H](c2c(Cl)c(Cl)cc3nc(Cl)cn23)[C@H](O)[C@@H]1O          CC50  > 100 µM
2  Clc1cc2nc(Cl)c(C3C=CCO3)n2cc1Cl (racemic)          CC50    222 µM

Continue with the molecule presented below.
Check the records and state CC50 for OC[C@H]1O[C@@H](c2c(Cl)ccc3nc(Cl)cn23)[C@H](O)[C@@H]1O
> 100 µM
